Reference source: BindingDB's records for doi:10.1080/14756360701546595

Below is a list of entries, each paired with its recorded pIC50 value.
# tested on: Glutathione S-transferase E2 (Anopheles gambiae)
# Sequence (Q9GPL8 whole entry): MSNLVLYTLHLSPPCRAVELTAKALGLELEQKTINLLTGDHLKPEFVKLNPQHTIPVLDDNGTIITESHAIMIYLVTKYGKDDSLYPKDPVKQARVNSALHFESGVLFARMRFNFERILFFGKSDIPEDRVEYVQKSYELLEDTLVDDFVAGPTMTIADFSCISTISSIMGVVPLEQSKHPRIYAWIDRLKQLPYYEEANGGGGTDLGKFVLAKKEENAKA
pIC50: −log10 of the molar value.
measure name: pIC50

compound: CC(C)=CCCC1(C)C(CC=C(C)C)CC2(CC=C(C)C)C(=O)C(C(=O)c3ccc(O)c(O)c3)C(=O)C1(CC=C(C)C)C2=O (configuration not stated)
val: 5.32

compound: C=C(CC)C(=O)c1ccc(OCC(=O)O)c(Cl)c1Cl
val: 5.85
